molecular target: UniProtKB P12661; experiment: Surface plasmon resonance; design: species or system bovine; details: pH 7.4, read-out: ka, association rate constant
Sequence (P12661 23-1286): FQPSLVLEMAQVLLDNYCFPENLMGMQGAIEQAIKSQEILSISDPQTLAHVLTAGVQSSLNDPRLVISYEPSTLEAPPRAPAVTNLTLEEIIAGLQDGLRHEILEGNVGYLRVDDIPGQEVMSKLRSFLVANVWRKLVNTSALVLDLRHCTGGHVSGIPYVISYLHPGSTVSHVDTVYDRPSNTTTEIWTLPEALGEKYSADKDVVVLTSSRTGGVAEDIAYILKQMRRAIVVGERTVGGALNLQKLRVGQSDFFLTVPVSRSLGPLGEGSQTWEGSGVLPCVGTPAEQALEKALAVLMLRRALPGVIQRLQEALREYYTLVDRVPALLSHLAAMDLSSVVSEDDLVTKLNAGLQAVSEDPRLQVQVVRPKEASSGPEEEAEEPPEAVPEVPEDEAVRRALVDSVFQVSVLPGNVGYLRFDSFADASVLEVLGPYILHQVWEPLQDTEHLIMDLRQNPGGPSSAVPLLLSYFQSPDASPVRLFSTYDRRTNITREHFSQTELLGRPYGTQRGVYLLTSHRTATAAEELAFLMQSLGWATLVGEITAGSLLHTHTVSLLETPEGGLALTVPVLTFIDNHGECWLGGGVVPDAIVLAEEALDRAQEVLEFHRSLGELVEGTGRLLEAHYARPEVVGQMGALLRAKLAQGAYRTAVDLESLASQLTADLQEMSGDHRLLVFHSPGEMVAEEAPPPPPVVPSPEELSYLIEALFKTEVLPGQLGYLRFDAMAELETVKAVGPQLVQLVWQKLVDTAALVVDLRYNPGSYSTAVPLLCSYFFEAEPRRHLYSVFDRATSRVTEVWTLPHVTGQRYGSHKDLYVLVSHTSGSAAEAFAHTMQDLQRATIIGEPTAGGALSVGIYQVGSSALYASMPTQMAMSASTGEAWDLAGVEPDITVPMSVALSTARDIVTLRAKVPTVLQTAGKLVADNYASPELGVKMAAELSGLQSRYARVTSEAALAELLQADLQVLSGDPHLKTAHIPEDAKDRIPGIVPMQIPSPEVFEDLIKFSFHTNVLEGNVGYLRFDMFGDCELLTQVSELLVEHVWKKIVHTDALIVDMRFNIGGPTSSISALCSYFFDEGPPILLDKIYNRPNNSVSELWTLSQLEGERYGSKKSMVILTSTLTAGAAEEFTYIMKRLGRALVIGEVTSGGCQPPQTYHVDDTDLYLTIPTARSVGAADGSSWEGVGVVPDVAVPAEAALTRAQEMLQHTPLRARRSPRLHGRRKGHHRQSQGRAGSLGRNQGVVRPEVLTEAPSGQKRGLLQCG
measured_property: kon
Field note: include the unit after the figure.

Guide cases for kon, answers given:
CC/C=C\C/C=C\C/C=C\C/C=C\C/C=C\CCCC(=O)O [Eicosapentaenoic acid (EPA), Eicosapentaenoic acid]: 30000 M⁻¹ s⁻¹
CCCCCCCCCCCCCCCC(=O)O [Palmitic acid]: 360000 M⁻¹ s⁻¹
CC1=C[C@H](O)CC(C)(C)[C@H]1/C=C/C(C)=C/C=C/C(C)=C/C=C/C=C(C)/C=C/C=C(C)/C=C/C1=C(C)C[C@@H](O)CC1(C)C [Lutein]: 49000 M⁻¹ s⁻¹
CCCCCCCC/C=C\CCCCCCCC(=O)O [Oleic acid]: 150000 M⁻¹ s⁻¹
CC/C=C\C/C=C\C/C=C\C/C=C\C/C=C\C/C=C\CCC(=O)O [Docosahexaenoic acid (DHA), Docosahexaenoic acid]: 20000 M⁻¹ s⁻¹

Query: Short answer please: kon, UniProtKB P12661, entry CC1=C(/C=C/C(C)=C/C=C/C(C)=C/C=C/C=C(C)/C=C/C=C(C)/C=C/C2=C(C)CCCC2(C)C)C(C)(C)CCC1 [β-carotene]
Reply: 122000 M⁻¹ s⁻¹

Query: Short answer please: kon, UniProtKB P12661, entry CCCCCCCCCCCCCCCCCCCC(=O)O [Arachidic acid]
Reply: 280000 M⁻¹ s⁻¹

Query: Short answer please: kon, UniProtKB P12661, entry CCCCCCCCCCCCCCCCCC(=O)O [Stearic acid]
Reply: 32000 M⁻¹ s⁻¹
